TARGET DESC: P70S6K (T412E mutant, Millipore) (Homo sapiens (Human), UniProt P23443, T412E)
Sequence (P23443 whole entry T412E): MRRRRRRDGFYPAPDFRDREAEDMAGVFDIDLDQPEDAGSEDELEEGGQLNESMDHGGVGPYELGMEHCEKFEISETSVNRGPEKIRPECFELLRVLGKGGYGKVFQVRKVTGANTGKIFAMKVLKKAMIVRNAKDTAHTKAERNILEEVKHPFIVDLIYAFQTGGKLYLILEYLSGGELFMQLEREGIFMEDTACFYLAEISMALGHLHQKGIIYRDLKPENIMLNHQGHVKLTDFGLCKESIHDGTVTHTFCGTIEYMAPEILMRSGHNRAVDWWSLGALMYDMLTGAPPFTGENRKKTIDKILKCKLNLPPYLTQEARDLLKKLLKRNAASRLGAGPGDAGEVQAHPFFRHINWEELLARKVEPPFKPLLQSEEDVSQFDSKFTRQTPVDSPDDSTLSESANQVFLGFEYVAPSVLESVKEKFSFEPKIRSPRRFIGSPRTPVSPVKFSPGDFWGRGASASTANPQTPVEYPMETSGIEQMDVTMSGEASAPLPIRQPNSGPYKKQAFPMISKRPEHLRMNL
PROTOCOL SUMMARY: P70S6K enzyme assay
CONDITION SUMMARY: 24 μM ATP, 90 min at 25° C.
Each entry below carries its recorded IC50.

compound="O=C1CNc2ncnc(N3CCN(C(CN4CCCCC4)c4ccc(F)c(F)c4)CC3)c2N1 (centres unmarked) [Compound A53]" target_desc="P70S6K (T412E mutant, Millipore) (Homo sapiens (Human), UniProt P23443, T412E)" measured_quantity=IC50 assay_value="> 1 µM"
compound="O=C1CNc2ncnc(N3CCN(C(CN4CCCCC4)c4ccc(F)cc4)CC3)c2N1 (centres unmarked) [Compound A31]" target_desc="P70S6K (T412E mutant, Millipore) (Homo sapiens (Human), UniProt P23443, T412E)" measured_quantity=IC50 assay_value="> 1 µM"
compound="CN(C)CC(c1ccc(F)c(Cl)c1)N1CCN(c2ncnc3c2NC(=O)CN3)CC1 (centres unmarked) [Compound A54]" target_desc="P70S6K (T412E mutant, Millipore) (Homo sapiens (Human), UniProt P23443, T412E)" measured_quantity=IC50 assay_value="> 1 µM"

Task: Notebook: pull reported IC50 for P70S6K (T412E mutant, Millipore) (Homo sapiens (Human), UniProt P23443, T412E), entry NCC(c1ccc(Cl)cc1)N1CCN(c2ncnc3c2CCCN3)CC1 (centres unmarked) [Compound A17]
Result: 0.101 to 0.5 µM

Task: Quick one: O=C1CNc2ncnc(N3CCN(C(CN4CCCCC4)c4ccc(C(F)(F)F)cc4)CC3)c2N1 (centres unmarked) [Compound A33]
Result: > 1 µM

Task: Quick one: O=C1CNc2ncnc(N3CCN(C(CN4CCCC4)c4ccc(Cl)cc4)CC3)c2N1 (centres unmarked) [Compound A30]
Result: 0.501 to 1 µM

###

TARGET DESC: His-AKT (Full Length) (Homo sapiens (Human))
Sequence (P31749 whole entry): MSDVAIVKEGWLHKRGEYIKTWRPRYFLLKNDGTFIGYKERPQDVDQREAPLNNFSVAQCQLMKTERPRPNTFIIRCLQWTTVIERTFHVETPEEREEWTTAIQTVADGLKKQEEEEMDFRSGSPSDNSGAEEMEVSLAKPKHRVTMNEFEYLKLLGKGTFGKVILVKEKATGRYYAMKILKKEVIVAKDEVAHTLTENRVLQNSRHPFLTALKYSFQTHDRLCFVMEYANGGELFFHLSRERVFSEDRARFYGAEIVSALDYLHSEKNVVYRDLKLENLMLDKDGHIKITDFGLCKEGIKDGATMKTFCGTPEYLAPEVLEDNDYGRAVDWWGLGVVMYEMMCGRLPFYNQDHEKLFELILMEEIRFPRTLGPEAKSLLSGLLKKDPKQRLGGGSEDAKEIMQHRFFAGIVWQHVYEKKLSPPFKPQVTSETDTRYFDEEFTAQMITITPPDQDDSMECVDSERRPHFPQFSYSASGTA
pIC50: −log10 of the molar value.
Each entry below carries its recorded pIC50.

Completed entries (count: 10):
compound="O=C1CNc2ncnc(N3CCN(C(CN4CCCCC4)c4ccccc4Cl)CC3)c2N1 (centres unmarked) [Compound A44]" target_desc="His-AKT (Full Length) (Homo sapiens (Human))" assay_value="< 6.00"
compound="O=C1CNc2ncnc(N3CCN(C(CN4CCCC4)c4ccc(F)c(Cl)c4)CC3)c2N1 (centres unmarked) [Compound A56]" target_desc="His-AKT (Full Length) (Homo sapiens (Human))" assay_value="< 6.00"
compound="O=C1CNc2ncnc(N3CCN(C(CN4CCCC4)c4ccc(Cl)c(F)c4)CC3)c2N1 (centres unmarked) [Compound A61]" target_desc="His-AKT (Full Length) (Homo sapiens (Human))" assay_value="6.30 to 7.00"
compound="O=C1CNc2ncnc(N3CCN(C(CN4CCCCC4)c4ccc(Cl)c(F)c4)CC3)c2N1 (centres unmarked) [Compound A62]" target_desc="His-AKT (Full Length) (Homo sapiens (Human))" assay_value="6.00 to 6.30"
compound="O=C1CNc2ncnc(N3CCN(C(CN4CCC4)c4ccc(F)c(F)c4)CC3)c2N1 (centres unmarked) [Compound A51]" target_desc="His-AKT (Full Length) (Homo sapiens (Human))" assay_value="< 6.00"
compound="NCC(c1ccc(C(F)(F)F)cc1)N1CCN(c2ncnc3c2OCCN3)CC1 (centres unmarked) [Compound A10]" target_desc="His-AKT (Full Length) (Homo sapiens (Human))" assay_value="6.30 to 7.00"
compound="CN(C)CC(c1ccc(Cl)cc1)N1CCN(c2ncnc3c2NC(=O)CN3)CC1 (centres unmarked) [Compound A26]" target_desc="His-AKT (Full Length) (Homo sapiens (Human))" assay_value="6.30 to 7.00"
compound="O=C1CNc2ncnc(N3CCN(C(CN4CCC4)c4ccc(Cl)c(F)c4)CC3)c2N1 (centres unmarked) [Compound A60]" target_desc="His-AKT (Full Length) (Homo sapiens (Human))" assay_value="< 6.00"
compound="NCC(c1ccc(F)cc1)N1CCN(c2ncnc3c2CCN3)CC1 (centres unmarked) [Compound A14]" target_desc="His-AKT (Full Length) (Homo sapiens (Human))" assay_value="6.00 to 6.30"
compound="Cc1ccccc1C(CN1CCCC1)N1CCN(c2ncnc3c2NC(=O)CN3)CC1 (centres unmarked) [Compound A46]" target_desc="His-AKT (Full Length) (Homo sapiens (Human))" assay_value="< 6.00"

Task: I'd like to know its pIC50. The compound in question is CN(C)CC(c1ccc(C(F)(F)F)c(F)c1)N1CCN(c2ncnc3c2OCCN3)CC1 (centres unmarked) [Compound A12]
Result: 6.30 to 7.00

Task: Quick one: O=C1CNc2ncnc(N3CCN(C(CN4CCCCC4)c4ccccc4F)CC3)c2N1 (centres unmarked) [Compound A38]
Result: < 6.00

Task: Quick one: O=C1CNc2ncnc(N3CCN(C(CN4CCCC4)c4ccc(Cl)cc4)CC3)c2N1 (centres unmarked) [Compound A30]
Result: 6.00 to 6.30

Task: Quick one: O=C1CNc2ncnc(N3CCN(C(CN4CCCCC4)c4ccc(C(F)(F)F)cc4)CC3)c2N1 (centres unmarked) [Compound A33]
Result: 6.00 to 6.30

Task: Quick one: NCC(c1ccc(F)cc1)N1CCN(c2ncnc3c2CCCN3)CC1 (centres unmarked) [Compound A21]
Result: 6.00 to 6.30

Task: Quick one: Cc1ccc(C(CNCCN(C)C)N2CCN(c3ncnc4c3NC(=O)CN4)CC2)cc1 (centres unmarked) [Compound A65]
Result: < 6.00

Task: Quick one: CNCC(c1ccccc1Cl)N1CCN(c2ncnc3c2NC(=O)CN3)CC1 (centres unmarked) [Compound A41]
Result: < 6.00

###

TARGET DESC: P70S6K (T412E mutant, Millipore) (Homo sapiens (Human), UniProt P23443, T412E)
PROTOCOL SUMMARY: P70S6K enzyme assay
CONDITION SUMMARY: 24 μM ATP, 90 min at 25° C.
Each entry below carries its recorded IC50.

Completed entries (count: 7):
molecule="NCC(c1ccc(Cl)cc1)N1CCN(c2ncnc3c2CCN3)CC1 (centres unmarked) [Compound A13]" measured_quantity=IC50 assay_value="25 to 100 nM"
molecule="O=C1CNc2ncnc(N3CCN(C(CN4CCCC4)c4ccc(F)c(F)c4)CC3)c2N1 (centres unmarked) [Compound A52]" measured_quantity=IC50 assay_value="> 1000 nM"
molecule="CN(C)CC(c1ccc(Cl)c(F)c1)N1CCN(c2ncnc3c2NC(=O)CN3)CC1 (centres unmarked) [Compound A58]" measured_quantity=IC50 assay_value="> 1000 nM"
molecule="O=C1CNc2ncnc(N3CCN(C(CN4CCCCC4)c4ccccc4Cl)CC3)c2N1 (centres unmarked) [Compound A44]" measured_quantity=IC50 assay_value="> 1000 nM"
molecule="CN(C)CC(c1ccc(Cl)cc1)N1CCN(c2ncnc3c2CCN3)CC1 (centres unmarked) [Compound A7]" measured_quantity=IC50 assay_value="101 to 500 nM"
molecule="O=C1CNc2ncnc(N3CCN(C(CN4CCC4)c4ccccc4Cl)CC3)c2N1 (centres unmarked) [Compound A42]" measured_quantity=IC50 assay_value="> 1000 nM"
molecule="CN(C)CC(c1ccc(C(F)(F)F)cc1)N1CCN(c2ncnc3c2OCCN3)CC1 (centres unmarked) [Compound A5]" measured_quantity=IC50 assay_value="> 1000 nM"

Next up:
Task: I'd like to know its IC50. The molecule in question is CN(C)CC(c1cccc(Cl)c1)N1CCN(c2ncnc3c2NC(=O)CN3)CC1 (centres unmarked) [Compound A27]
Result: > 1000 nM

###

TARGET DESC: P70S6K (T412E mutant, Millipore) (Homo sapiens (Human), UniProt P23443, T412E)
PROTOCOL SUMMARY: P70S6K enzyme assay
CONDITION SUMMARY: 24 μM ATP, 90 min at 25° C.
Each entry below carries its recorded IC50.

Completed entries (count: 3):
molecule="O=C1CNc2ncnc(N3CCN(C(CN4CCC4)c4ccc(Cl)c(F)c4)CC3)c2N1 (centres unmarked) [Compound A60]" measured_quantity=IC50 assay_value="> 1000 nM"
molecule="NCC(c1ccc(C(F)(F)F)cc1)N1CCN(c2ncnc3c2CCCN3)CC1 (centres unmarked) [Compound A16]" measured_quantity=IC50 assay_value="25 to 100 nM"
molecule="CN(C)CC(c1cccc(F)c1)N1CCN(c2ncnc3c2NC(=O)CN3)CC1 (centres unmarked) [Compound A25]" measured_quantity=IC50 assay_value="> 1000 nM"

Task: Notebook: pull reported IC50 for P70S6K (T412E mutant, Millipore) (Homo sapiens (Human), UniProt P23443, T412E), entry CN(C)CC(c1ccc(F)c(F)c1)N1CCN(c2ncnc3c2NC(=O)CN3)CC1 (centres unmarked) [Compound A49]
Result: > 1000 nM

Task: Quick one: NCC(c1ccc(C(F)(F)F)cc1)N1CCN(c2ncnc3c2OCCN3)CC1 (centres unmarked) [Compound A10]
Result: 501 to 1000 nM

Task: Quick one: NCC(c1ccc(C(F)(F)F)cc1)C1CCN(c2ncnc3c2OCCN3)CC1 (centres unmarked) [Compound A23]
Result: > 1000 nM

Task: Quick one: CN(C)CC(c1ccc(C(F)(F)F)c(F)c1)N1CCN(c2ncnc3c2CCN3)CC1 (centres unmarked) [Compound A20]
Result: 101 to 500 nM

Task: Quick one: NCC(c1ccc(C(F)(F)F)cc1)C1CCN(c2ccnc3c2CCN3)CC1 (centres unmarked) [Compound A2]
Result: 25 to 100 nM

Task: Quick one: NCC(c1ccc(C(F)(F)F)cc1)C1CCN(c2ncnc3c2CCCN3)CC1 (centres unmarked) [Compound A22]
Result: 101 to 500 nM

Task: Quick one: CN(C)CC(c1ccc(Cl)c(F)c1)N1CCN(c2ncnc3c2CCCN3)CC1 (centres unmarked) [Compound A18]
Result: 101 to 500 nM

Task: Quick one: CN(C)CC(c1ccc(Cl)cc1)N1CCN(c2ncnc3c2OCCN3)CC1 (centres unmarked) [Compound A4]
Result: > 1000 nM

Task: Quick one: O=C1CNc2ncnc(N3CCN(C(CN4CCCC4)c4ccc(F)c(Cl)c4)CC3)c2N1 (centres unmarked) [Compound A56]
Result: > 1000 nM

Task: Quick one: NCC(c1ccc(C(F)(F)F)cc1)C1CCN(c2ccnc3c2CCC3)CC1 (centres unmarked) [Compound A3]
Result: > 1000 nM

Task: Quick one: CN(C)CC(c1ccc(Cl)c(F)c1)N1CCN(c2ncnc3c2CCN3)CC1 (centres unmarked) [Compound A15]
Result: 101 to 500 nM

Task: Quick one: CN(C)CC(c1ccc(C(F)(F)F)cc1)N1CCN(c2ncnc3c2CCCN3)CC1 (centres unmarked) [Compound A9]
Result: 25 to 100 nM

Task: Quick one: O=C1CNc2ncnc(N3CCN(C(CN4CCCC4)c4ccc(F)cc4)CC3)c2N1 (centres unmarked) [Compound A29]
Result: > 1000 nM

Task: Quick one: CNCC(c1ccc(Cl)c(F)c1)N1CCN(c2ncnc3c2NC(=O)CN3)CC1 (centres unmarked) [Compound A59]
Result: > 1000 nM
